These measurements were taken from ChEMBL document CHEMBL1133640.

# Target Under Test: Neuropeptide Y receptor type 1 (Homo sapiens)
# Sequence (P25929 whole entry): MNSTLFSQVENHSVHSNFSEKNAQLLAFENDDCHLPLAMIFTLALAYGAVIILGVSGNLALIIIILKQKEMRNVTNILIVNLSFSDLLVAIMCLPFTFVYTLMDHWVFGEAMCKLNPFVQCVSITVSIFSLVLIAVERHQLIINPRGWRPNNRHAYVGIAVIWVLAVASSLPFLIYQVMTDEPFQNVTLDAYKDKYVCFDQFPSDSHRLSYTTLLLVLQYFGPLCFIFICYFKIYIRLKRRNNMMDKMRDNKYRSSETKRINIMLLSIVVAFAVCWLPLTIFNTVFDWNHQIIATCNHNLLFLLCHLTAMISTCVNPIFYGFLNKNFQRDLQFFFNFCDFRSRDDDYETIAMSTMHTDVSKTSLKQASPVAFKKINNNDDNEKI
# Measurement Protocol: Affinity against Neuropeptide Y receptor Y1 in SK-N-MC cell line
# Type: cell-based
Value Type: pIC50
Please keep in mind that pIC50 is minus log10 of the molar concentration; only the number is needed.

Query: Answer with the recorded pIC50 for the molecule listed here: CC(=O)N[C@@H](C)C(=O)N[C@@H](CO)C(=O)N[C@@H](CC(C)C)C(=O)N[C@@H](CCCN=C(N)N)C(=O)N[C@@H](Cc1c[nH]cn1)C(=O)N[C@@H](Cc1ccc(O)cc1)C(=O)N[C@@H](CC(C)C)C(=O)N[C@@H](CC(N)=O)C(=O)N[C@H](CN[C@H](C(=O)N[C@H](C(=O)N[C@@H](CCCN=C(N)N)C(=O)N[C@@H](CCC(N)=O)C(=O)N[C@@H](CCCN=C(N)N)C(=O)N[C@@H](Cc1ccc(O)cc1)C(N)=O)[C@@H](C)O)C(C)C)CC(C)C
Result: 6.11
